procedure text: yeast display, Sf9 membrane polyspecificity reagent, FACS + sequencing; frameworks hold sequencing errors
endpoint label: polyreactivity (PSR sort gate)

INSERT INTO measurements (polymer_sequence, reported_measurement) VALUES
  ('QVHLVESGGGLVQAGGSLRLSCAASGSTFPYYDMGWYRQAPGKERELVAAITYNGGNTYYADSVKGRFTISRDNAKNTVYLQMNSLKPEDTAVYYCAADGTLARLYYWATGDEDGYWGQGTQVTVSS', 'low polyreactivity'),
  ('QVQLVESGGGLVQAGGSLRLSCAASGSTFTPYAMGWYRQAPGQEREFVAAITSIGGSTYYADSVKGRITISRDNAKNTVYLQMIRLKPEDTAVYNCAADYSEWTLWNDYWGQCTQVTVSS', 'high polyreactivity'),
  ('QVHLVESGVGLVQAGGSLRLRCAASGRTLYYYAMGWYRQAPGKQSELVAAINSGGSTKYADSVKGRFTISRDNAKNTVYLQMHSLKPEDTAVYFCAARGYIRGGYYWGQGTQVTVSS', 'high polyreactivity'),
  ('QVQLVESGGGLVQAGGSLRLSCAASGRISSANAMGWYRPAPGKERELVAAITWSGGSTYYADSVKGRFTISRDNAKNTVYIQMNSMKQEDTAVYYCAAESSAYGGGTSDAGYESDYWGQGTQVTVSS', 'low polyreactivity');

Now turn to the next sequence.
Prompt line: Please give the measured polyreactivity (PSR sort gate) for this sequence: QVQLVESGGGLVQAGGSLRLSCAASGRIFGLNAMGWYRQAPGKERELVAAITGSVGSTYYADSVKGRFTISRDNAKNTVYLQMNSLKPEDTAVYYCNAEYDSRRSSYYRHFNYWGQGTQVTVSS
Response line: low polyreactivity
